The reported numbers originate from the supplement of paper PMC3545927.

experimental.system: furin, P09958;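 note: purified furin at 1:10 enzyme:substrate in 50 mM HEPES pH 7.5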
Sequence (P09958 whole entry): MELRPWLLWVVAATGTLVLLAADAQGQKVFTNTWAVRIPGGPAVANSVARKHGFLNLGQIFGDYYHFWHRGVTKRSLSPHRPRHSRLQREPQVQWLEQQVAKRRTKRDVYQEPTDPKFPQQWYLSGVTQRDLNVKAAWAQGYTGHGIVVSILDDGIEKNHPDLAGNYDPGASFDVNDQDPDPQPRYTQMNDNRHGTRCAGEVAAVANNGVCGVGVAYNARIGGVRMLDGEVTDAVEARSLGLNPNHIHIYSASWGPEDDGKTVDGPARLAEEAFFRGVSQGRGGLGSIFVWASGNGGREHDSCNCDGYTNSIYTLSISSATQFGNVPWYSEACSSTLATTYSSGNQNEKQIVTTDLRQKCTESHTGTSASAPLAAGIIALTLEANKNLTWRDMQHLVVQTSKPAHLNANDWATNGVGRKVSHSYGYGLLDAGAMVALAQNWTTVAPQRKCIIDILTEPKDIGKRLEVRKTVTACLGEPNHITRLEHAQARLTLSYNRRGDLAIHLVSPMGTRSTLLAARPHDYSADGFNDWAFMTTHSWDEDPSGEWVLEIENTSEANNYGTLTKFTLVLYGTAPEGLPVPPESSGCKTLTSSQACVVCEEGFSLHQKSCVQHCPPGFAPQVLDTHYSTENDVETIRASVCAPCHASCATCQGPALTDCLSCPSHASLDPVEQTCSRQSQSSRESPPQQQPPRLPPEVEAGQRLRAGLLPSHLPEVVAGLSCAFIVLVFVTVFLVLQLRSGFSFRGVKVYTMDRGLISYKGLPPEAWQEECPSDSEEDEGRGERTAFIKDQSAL
assay.procedure: furin cleavage Z-score vs untreated control; higher = more cleavage, active = 3.5 or more, inactive = 1 or less, 8 variable residues between constant flanks
run.parameters: 15 min
Some of the results follow. The true hit rate is not given.
metric: furin cleavage Z-score

| monomer.sequence | val |
| --- | --- |
| CAVRLRAYMNAGNASASA [HC929] | -1.18 |
| CAARGSPPSVAGNASASA [HC1256] | -0.707 |
| CAIVCCSMSYAGNASASA [HC1984] | 0.44 |
| CATGTYVYNHAGNASASA [HC633] | -1.41 |
| CAAAGLQDCTAGNASASA [HC1523] | -1.19 |
| CAQPARSVRLAGNASASA [FS-1389] | 0.85 |
| CAVVCCWMSYAGNASASA [HC107] | 0.873 |
| CARARRDPRAAGNASASA [FS-2643] | 9.59 |
| CAWRCRVARSAGNASASA [FS-897] | 5.73 |
| CAMWPLLLLLAGNASASA [HC557] | 0.292 |
| CARARRDAGPAGNASASA [FS-3150] | 11.6 |
| CASHAVVARSAGNASASA [FS-1080] | 4.91 |
| CALHCPTDCFAGNASASA [HC450] | -0.346 |
| CAFLATCINGAGNASASA [HC695] | -1.97 |
| CAQTPCSAHLAGNASASA [HC2482] | 0.702 |
